ASSAYED_TARGET: HLA-DRB1*01:01 (Homo sapiens, UniProt P01903+P01911, A100R/D57E/F55L/F60I/F76Y/I96L/L162R/M171V/P40L/Q125E/R42F/V115G/Y59C)
Construct: EBV transformed homozygous cell lines were used as sources of MHC molecules; endogenous in cells; host or cells: EBV transformed homozygous cell lines
EXPERIMENTAL_PROTOCOL: HLA class II peptide binding, inhibition of radiolabeled peptide binding to purified MHC
CONDITION_NOTES: citrullinated 15-mer peptide (X = citrulline); purified HLA-DRB1*01:01; read-out: DRB1*01:01 binding capacity, Cit peptide (IC50 nM)
Square brackets hold non-standard residues; d marks the D form. Peptide text beside a SMILES is read from it. Cit = NC(=O)NCCC[C@H](N)C(=O)O
ATTRIBUTE_MEASURED: IC50 (nM)
Give the value, in units of nM, as a plain number.

As a guide, the following entries are already answered.
CC(C)C[C@H](NC(=O)[C@H](CO)NC(=O)[C@H](CCC(N)=O)NC(=O)[C@@H](NC(=O)[C@H](CCC(N)=O)NC(=O)[C@H](CCCNC(=N)N)NC(=O)[C@H](CCCNC(N)=O)NC(=O)[C@H](Cc1ccc(O)cc1)NC(=O)[C@H](CCC(=O)O)NC(=O)[C@@H](NC(=O)[C@@H](N)CO)[C@@H](C)O)C(C)C)C(=O)N[C@H](C(=O)N[C@@H](CS)C(=O)N[C@@H](CCC(=O)O)C(=O)N[C@H](C(=O)O)C(C)C)[C@@H](C)O [STEYXRQVQSLTCEV] (H-STEY[Cit]RQVQSLTCEV-OH); 97
CC[C@H](C)[C@H](NC(=O)[C@H](CCCNC(=N)N)NC(=O)[C@H](CO)NC(=O)[C@H](CCC(=O)O)NC(=O)[C@H](CCC(=O)O)NC(=O)CNC(=O)[C@H](CCC(=O)O)NC(=O)[C@H](CC(C)C)NC(=O)[C@H](CC(C)C)NC(=O)[C@H](CCCCN)NC(=O)[C@@H](N)CCCNC(N)=O)C(=O)N[C@@H](CO)C(=O)N[C@@H](CC(C)C)C(=O)N1CCC[C@H]1C(=O)N[C@@H](CC(C)C)C(=O)O [XKLLEGEESRISLPL]; 853
C[C@H](NC(=O)CNC(=O)[C@H](C)NC(=O)[C@@H]1CCCN1C(=O)CNC(=O)[C@@H](NC(=O)[C@H](CCCNC(=N)N)NC(=O)CNC(=O)[C@H](CCCNC(N)=O)NC(=O)[C@@H](N)CCC(=O)O)[C@@H](C)O)C(=O)N[C@@H](C)C(=O)NCC(=O)N[C@@H](C)C(=O)N[C@@H](CCCNC(=N)N)C(=O)NCC(=O)O [EXGRTGPAGAAGARG] (H-E[Cit]GRTGPAGAAGARG-OH); 1620
CC(C)C[C@H](NC(=O)CNC(=O)[C@H](CCCNC(N)=O)NC(=O)[C@H](CCC(=O)O)NC(=O)CNC(=O)[C@@H]1CCCN1C(=O)[C@H](CCC(=O)O)NC(=O)CNC(=O)[C@H](C)N)C(=O)N[C@@H](CCCCN)C(=O)NCC(=O)N[C@@H](Cc1c[nH]cn1)C(=O)N[C@@H](CCCNC(=N)N)C(=O)NCC(=O)N[C@@H](Cc1ccccc1)C(=O)O [AGEPGEXGLKGHRGF] (H-AGEPGE[Cit]GLKGHRGF-OH); 783

Consider the record given below.
Field request: IC50 | item: N=C(N)NCCC[C@H](NC(=O)[C@H](CCC(=O)O)NC(=O)CNC(=O)[C@H](CCCNC(=N)N)NC(=O)[C@@H]1CCCN1C(=O)CN)C(=O)NCC(=O)N[C@@H](Cc1ccccc1)C(=O)N1CCC[C@H]1C(=O)NCC(=O)N[C@@H](CCC(=O)O)C(=O)N[C@@H](CCCNC(N)=O)C(=O)NCC(=O)N[C@@H](CO)C(=O)N1CCC[C@H]1C(=O)O [GPRGERGFPGEXGSP] (H-GPRGERGFPGE[Cit]GSP-OH)
31100
